Experiment: Qualitative solubility screening
Format: physicochemical
Settings: organic solvent or mixture, thermodynamic from solid, solvent Benzonitrile; 50 mg in 4 mL; read-out: Solubility at Room Temp (RT)
experimental endpoint: solubility

compound="Br.CC(NC(C)(C)C)C(=O)c1cccc(Cl)c1 (stereo not shown) [Bupropion hydrobromide]" experimental_endpoint=solubility experimental_value="< 12.5 mg/mL"

====

Assay: Qualitative solubility screening
Type: physicochemical
Settings: organic solvent or mixture, thermodynamic from solid, solvent Methyl Benzoate; 50 mg in 4 mL; read-out: Solubility at Room Temp (RT)
experimental endpoint: solubility

compound="Br.CC(NC(C)(C)C)C(=O)c1cccc(Cl)c1 (stereo not shown) [Bupropion hydrobromide]" experimental_value="< 12.5 mg/mL"

====

Test: Stability tests on bupropion hydrobromide polymorphs in humidity chamber (XRD pattern)
Type: physicochemical
Conditions: 30 days; 40° C.; 85% R.H.; open sample-holder
experimental endpoint: XRD pattern / crystal form after storage

compound="Br.CC(NC(C)(C)C)C(=O)c1cccc(Cl)c1 (stereo not drawn) [Form V]" experimental_value="converted into Form I"
compound="Br.CC(NC(C)(C)C)C(=O)c1cccc(Cl)c1 (stereo not drawn) [Form IV]" experimental_value="converted into Form I"
compound="Br.CC(NC(C)(C)C)C(=O)c1cccc(Cl)c1 (stereo not drawn) [Form III]" experimental_value="converted into Form I"

====

Test: Qualitative solubility screening
Format: physicochemical
Details: organic solvent or mixture, thermodynamic from solid, solvent Ethyl Formate; 50 mg in 4 mL; read-out: Solubility at Room Temp (RT)
experimental endpoint: solubility

molecule="Br.CC(NC(C)(C)C)C(=O)c1cccc(Cl)c1 (stereo not shown) [Bupropion hydrobromide]" experimental_endpoint=solubility experimental_value="< 12.5 mg/mL"

====

Test: Qualitative solubility screening
Format: physicochemical
Settings: organic solvent or mixture, thermodynamic from solid, solvent 1-Propanol; 50 mg in 4 mL; read-out: Solubility at Room Temp (RT)
experimental endpoint: solubility

compound="Br.CC(NC(C)(C)C)C(=O)c1cccc(Cl)c1 (stereo not shown) [Bupropion hydrobromide]" experimental_value="> 12.5 mg/mL"

====

Assay: Qualitative solubility screening
Format: physicochemical
Settings: organic solvent or mixture, thermodynamic from solid, solvent 1,2-Dimethoxy Ethane; 50 mg in 4 mL; read-out: Solubility at Room Temp (RT)
experimental endpoint: solubility

compound="Br.CC(NC(C)(C)C)C(=O)c1cccc(Cl)c1 (stereo not shown) [Bupropion hydrobromide]" experimental_endpoint=solubility experimental_value="< 12.5 mg/mL"

====

Assay: Qualitative solubility screening
Format: physicochemical
Conditions: organic solvent or mixture, thermodynamic from solid, solvent Nitromethane; 50 mg in 4 mL; read-out: Solubility at Room Temp (RT)
experimental endpoint: solubility

molecule="Br.CC(NC(C)(C)C)C(=O)c1cccc(Cl)c1 (stereo not shown) [Bupropion hydrobromide]" experimental_endpoint=solubility experimental_value="> 12.5 mg/mL"

====

Assay: Qualitative solubility screening
Format: physicochemical
Conditions: organic solvent or mixture, thermodynamic from solid, solvent 1-Methyl-2-Pyrrolidone; 50 mg in 4 mL; read-out: Solubility at Room Temp (RT)
experimental endpoint: solubility

compound="Br.CC(NC(C)(C)C)C(=O)c1cccc(Cl)c1 (stereo not shown) [Bupropion hydrobromide]" experimental_value="> 12.5 mg/mL"

====

Assay: Qualitative solubility screening
Assay type: physicochemical
Conditions: organic solvent or mixture, thermodynamic from solid, solvent Toluene; 50 mg in 4 mL; read-out: Solubility at Room Temp (RT)
experimental endpoint: solubility

compound="Br.CC(NC(C)(C)C)C(=O)c1cccc(Cl)c1 (stereo not shown) [Bupropion hydrobromide]" experimental_value="< 12.5 mg/mL"
